B1: TPR t1 (parent)
chain: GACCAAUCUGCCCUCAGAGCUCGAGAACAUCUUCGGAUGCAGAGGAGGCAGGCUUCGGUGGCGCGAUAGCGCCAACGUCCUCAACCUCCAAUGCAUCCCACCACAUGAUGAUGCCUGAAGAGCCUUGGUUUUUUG

# Variants of: B1
# Assay Name: polymerase ribozyme fitness, log enrichment relative to wild type (log ratio); higher = more active; in vitro selection for triplet polymerase activity
So I've got a bunch of variants here, and I need their polymerase ribozyme fitness (log ratio) values.
Answers are plain numbers.

Below: 2 variants and their reported polymerase ribozyme fitness (log ratio).
Chain Sequence: GACUAGUCUGCCGUCAGAGCUCGAGAACAUCUUCGGAUGCAGAGGAGGCAGGCUUCGGUGGCGCGAUAGCGCCAACGUCCUCGACCUCCAAUGCAUCCCACCACAUGAUGAUGCCUGAAGAGCCUUGGUUUUUUG
Measurement Type: polymerase ribozyme fitness (log ratio)
Observed Measurement: -1.95
--
Chain Sequence: GACCAAUCUGCCCUCAGAGCUCGAGAACAUCUUUGGAUGCAGAGGAGGCAGGCUUCGGUGGCGCGAUAGCGCCAACGUCCUCAACCUCCAAUGCAUUCCACCACAUGAUGAUGCCUGAAGAGCCUUGGUUUUUUG
Measurement Type: polymerase ribozyme fitness (log ratio)
Observed Measurement: -4.85

Give measured polymerase ribozyme fitness (log ratio) for every item shown.
1. GACCAAUCUGCCCUCAGAGCUCGAGAACAUCUUCGGAUGCAGAGGAGGCAGGCUUCGGUGGCGCGAUAGCGCCAACGUCCUCAGCCUCCAAUGCAUCCCACCACAUGAUGAUGCCUGAAGAGCCUUGGGUUUUUG
2. GACCAAUCUGCCCUCAGAUCUCGAGAACAUCUUCGGAUGCAGAGUAGGCAGGCUUCGGUUGCGCGAUAGCGCCAACGUCCUCAACCUCCAAUGCAUCCCACCACAUGAUGAUGCCUGAUGAGCCUUGGUUUUUUG
3. GACCAAUCUGCCCUCAGAGCUCGAGGACAUCUUCGGUUGCAGAGGAGGCAGGGUUCGGUGGCGCGAUAGCGCCAACGUCCUCAACCUCCAAUGCAUCCCACCACAUGAUGAUGCCUGAAGAGCCUUGGUUUUUUG
4. GACCAAUCUGCCCUCAGAGCUCGAGAACAUCUUCGGAUGCAGAGGAGGCAGGCUUCGGUGGCGCGCUAGCGCCAACGUCCUCAACCUCCAAAGCAUCCCACCACAUGAUGAUGCCUGAAGAGCCUUGGUUUUUUG

Response:
-1.32
-5.1
-3.12
-6.51
